Each entry below lists one item and its recorded log10(EC50) value.
- experimental.target: human recombinant NK2 receptors (Homo sapiens)
- Sequence (P21452 whole entry): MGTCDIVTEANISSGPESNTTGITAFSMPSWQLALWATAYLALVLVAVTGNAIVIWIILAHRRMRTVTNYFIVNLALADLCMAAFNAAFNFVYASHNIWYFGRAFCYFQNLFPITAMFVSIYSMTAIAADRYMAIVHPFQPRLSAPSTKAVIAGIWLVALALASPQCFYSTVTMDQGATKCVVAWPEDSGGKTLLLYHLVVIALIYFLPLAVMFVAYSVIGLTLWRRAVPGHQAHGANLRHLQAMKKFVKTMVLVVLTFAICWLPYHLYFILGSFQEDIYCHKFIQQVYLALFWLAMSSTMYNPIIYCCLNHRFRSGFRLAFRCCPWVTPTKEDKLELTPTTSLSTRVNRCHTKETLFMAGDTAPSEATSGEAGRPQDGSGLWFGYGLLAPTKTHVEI
- assay.name: cell-based
- run.conditions: NK2 EC50 intracellular calcium response, CHO-hNK2 cells
Non-standard residues stand in square brackets, D forms with d. Residues, ends and D or L forms follow the SMILES beside them. Nle = CCCC[C@H](N)C(=O)O; βAla = NCCC(=O)O
Record value = log10 of EC50 given in nM.

[
  {
    "molecule": "CSCC[C@H](NC(=O)[C@H](CC(C)C)NC(=O)CNC(=O)[C@@H](NC(=O)[C@H](Cc1ccccc1)NC(=O)[C@H](CCCNC(=N)N)NC(=O)[C@@H](N)CC(=O)O)C(C)C)C(N)=O [[Arg^5]-NKA(4–10), Asp-Arg-Phe-Val-Gly-Leu-Met-NH2] (H-DRFVGLM-NH2)",
    "log10(EC50)": -0.72
  },
  {
    "molecule": "CSCC[C@H](NC(=O)[C@H](CC(C)C)NC(=O)CCNC(=O)[C@@H](NC(=O)[C@H](Cc1ccccc1)NC(=O)[C@H](CCCCN)NC(=O)[C@@H](N)CC(=O)O)C(C)C)C(N)=O [[Lys^5,β-Ala^8]-NKA(4–10), Asp-Lys-Phe-Val-[β-Ala]-Leu-Met-NH2] (H-DKFV[βAla]LM-NH2)",
    "log10(EC50)": -0.74
  },
  {
    "molecule": "CSCC[C@H](NC(=O)[C@H](CC(C)C)NC(=O)CCNC(=O)[C@@H](NC(=O)[C@H](Cc1ccccc1)NC(=O)[C@H](CO)NC(=O)[C@@H](N)CC(=O)O)C(C)C)C(N)=O [[β-Ala^8]-NKA(4–10), Asp-Ser-Phe-Val-[β-Ala]-Leu-Met-NH2] (H-DSFV[βAla]LM-NH2)",
    "log10(EC50)": -0.07
  },
  {
    "molecule": "CCCC[C@H](NC(=O)[C@H](CC(C)C)NC(=O)CCNC(=O)[C@@H](NC(=O)[C@H](Cc1ccccc1)NC(=O)[C@H](CCCNC(=N)N)NC(=O)[C@@H](N)CC(=O)O)C(C)C)C(N)=O [[Arg^5,β-Ala^8,Nle^10]-NKA(4–10), Asp-Arg-Phe-Val-[β-Ala]-Leu-Nle-NH2] (H-DRFV[βAla]L[Nle]-NH2)",
    "log10(EC50)": 0.06
  },
  {
    "molecule": "CSCC[C@H](NC(=O)[C@H](CC(C)C)NC(=O)CCNC(=O)[C@@H](NC(=O)[C@H](Cc1ccccc1)NC(=O)[C@H](CCCNC(=N)N)NC(=O)[C@@H](N)CC(=O)O)C(C)C)C(N)=O [[Arg^5,β-Ala^8]-NKA(4–10), Asp-Arg-Phe-Val-[β-Ala]-Leu-Met-NH2] (H-DRFV[βAla]LM-NH2)",
    "log10(EC50)": -0.82
  }
]

The observed log10(EC50) for CCCC[C@H](NC(=O)[C@H](CC(C)C)N(C)C(=O)CNC(=O)[C@@H](NC(=O)[C@H](Cc1ccccc1)NC(=O)[C@H](CCCCN)NC(=O)[C@@H](N)CC(=O)O)C(C)C)C(N)=O [[Lys^5,MeLeu^9,Nle^10]-NKA(4-10), Asp-Lys-Phe-Val-Gly-Leu(NMe)-Nle-NH2] when tested with human recombinant NK2 receptors (Homo sapiens) stands at -0.82

Lab entry: human recombinant NK2 receptors (Homo sapiens) assay, molecule CCCC[C@H](NC(=O)[C@H](CC(C)C)NC(=O)CNC(=O)[C@@H](NC(=O)[C@H](Cc1ccccc1)NC(=O)[C@H](CCCNC(=N)N)NC(=O)[C@@H](N)CC(=O)O)C(C)C)C(N)=O [[Arg^5,Nle^10]-NKA(4–10), Asp-Arg-Phe-Val-Gly-Leu-Nle-NH2] (H-DRFVGL[Nle]-NH2) , log10(EC50) = -0.70

Query CCCC[C@H](NC(=O)[C@H](CC(C)C)NC(=O)CCNC(=O)[C@@H](NC(=O)[C@H](Cc1ccccc1)NC(=O)[C@H](CCCCN)NC(=O)[C@@H](N)CC(=O)O)C(C)C)C(N)=O [[Lys^5,β-Ala^8,Nle^10]-NKA(4–10), Asp-Lys-Phe-Val-[β-Ala]-Leu-Nle-NH2] (H-DKFV[βAla]L[Nle]-NH2) on human recombinant NK2 receptors (Homo sapiens); log10(EC50) returned: 0.48

Log: human recombinant NK2 receptors (Homo sapiens), molecule CCCC[C@H](NC(=O)[C@H](CC(C)C)NC(=O)CNC(=O)[C@@H](NC(=O)[C@H](Cc1ccccc1)NC(=O)[C@H](CCCCN)NC(=O)[C@@H](N)CC(=O)O)C(C)C)C(N)=O [[Lys^5,Nle^10]-NKA(4–10), Asp-Lys-Phe-Val-Gly-Leu-Nle-NH2] , log10(EC50) = -0.42

Fill in: human recombinant NK2 receptors (Homo sapiens) log10(EC50) for CSCC[C@H](NC(=O)[C@H](CC(C)C)NC(=O)CNC(=O)[C@@H](NC(=O)[C@H](Cc1ccccc1)NC(=O)[C@H](CO)NC(=O)[C@@H](N)CC(=O)O)C(C)C)C(N)=O = 0.01

Given the molecule CSCC[C@H](NC(=O)[C@H](CC(C)C)NC(=O)CNC(=O)[C@@H](NC(=O)[C@H](Cc1ccccc1)NC(=O)[C@H](CCCCN)NC(=O)[C@@H](N)CC(=O)O)C(C)C)C(N)=O [[Lys^5]-NKA(4–10), Asp-Lys-Phe-Val-Gly-Leu-Met-NH2] and test system human recombinant NK2 receptors (Homo sapiens), the measured log10(EC50) is -1.05
